Biological target: Calpain-1 catalytic subunit (Homo sapiens)
Sequence (P07384 whole entry): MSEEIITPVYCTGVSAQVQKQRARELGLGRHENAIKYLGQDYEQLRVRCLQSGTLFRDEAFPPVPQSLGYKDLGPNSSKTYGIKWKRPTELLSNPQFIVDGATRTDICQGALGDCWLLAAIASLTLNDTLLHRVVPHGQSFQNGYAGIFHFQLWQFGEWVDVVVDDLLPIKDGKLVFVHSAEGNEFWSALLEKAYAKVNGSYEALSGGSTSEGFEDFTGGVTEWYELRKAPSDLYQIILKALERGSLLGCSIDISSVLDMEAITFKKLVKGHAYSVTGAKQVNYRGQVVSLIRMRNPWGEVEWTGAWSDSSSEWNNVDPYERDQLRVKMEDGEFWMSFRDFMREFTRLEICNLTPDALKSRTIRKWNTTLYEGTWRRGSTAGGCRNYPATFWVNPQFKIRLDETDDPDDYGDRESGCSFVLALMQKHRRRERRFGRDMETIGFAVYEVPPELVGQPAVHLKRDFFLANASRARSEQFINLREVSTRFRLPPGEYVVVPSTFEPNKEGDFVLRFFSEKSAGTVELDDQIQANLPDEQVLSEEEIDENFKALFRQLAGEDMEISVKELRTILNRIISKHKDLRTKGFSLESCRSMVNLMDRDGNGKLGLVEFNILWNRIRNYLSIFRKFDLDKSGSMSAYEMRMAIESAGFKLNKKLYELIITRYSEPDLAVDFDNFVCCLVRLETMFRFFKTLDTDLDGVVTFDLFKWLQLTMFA
Assay: Inhibitory activity evaluated against recombinant human calpain 1
Residues, ends and D or L forms follow the SMILES beside them. *: point of attachment. Cbz = O=C(OCc1ccccc1)*
Task for the reader: assign each of the following molecules its reported pIC50.
Just the number, please; pIC50 means minus log10 of the concentration in mol/L.

Request: What measured pIC50 goes with CC(C)C[C@@H](C=O)NC(=O)[C@H](CC(C)C)NC(=O)[C@H](Cc1ccc(O)cc1)NC(=O)OCc1ccccc1 (Cbz-Tyr-Leu-Leu-aldehyde) ?
Result: 8.10

Request: What measured pIC50 goes with `CC(C)C[C@@H](C=O)NC(=O)[C@H](CC(C)C)NC(=O)OCC1c2ccccc2-c2ccccc21` ?
Result: 7.96

Request: What measured pIC50 goes with `CC(C)C[C@@H](C=O)NC(=O)[C@H](CC(C)C)NC(=O)OCc1ccc([N+](=O)[O-])cc1` ?
Result: 8.10

---

Biological target: Calpain-1 catalytic subunit (Homo sapiens)
Experiment: Inhibitory activity evaluated against recombinant human calpain 1
Residues, ends and D or L forms follow the SMILES beside them. *: point of attachment. Cbz = O=C(OCc1ccccc1)*
Task for the reader: assign each of the following molecules its reported pIC50.
Just the number, please; pIC50 means minus log10 of the concentration in mol/L.

Request: What measured pIC50 goes with CC(C)C[C@@H](C=O)NC(=O)[C@@H](NC(=O)OCc1ccccc1)C(C)C (Cbz-Val-Leu-aldehyde) ?
Result: 7.54

Request: What measured pIC50 goes with CC(C)C[C@@H](C=O)NC(=O)[C@H](CC(C)C)NC(=O)[C@H](CCC(=O)O)NC(=O)OCc1ccccc1 (Cbz-Glu-Leu-Leu-aldehyde) ?
Result: 7.40

Request: What measured pIC50 goes with `CC(C)C[C@@H](C=O)NC(=O)[C@H](CC(C)C)NC(=O)[C@H](CC(C)C)NC(=O)c1ccc2ccccc2c1` ?
Result: 8.00

Request: What measured pIC50 goes with `CC(C)C[C@H](C=O)NC(=O)OCc1ccccc1` ?
Result: 5.00

Request: What measured pIC50 goes with CC(C)C[C@H](NC(=O)OCc1ccccc1)C(=O)N[C@H](C=O)Cc1cnc[nH]1 (Cbz-Leu-His-aldehyde) ?
Result: 7.82

Request: What measured pIC50 goes with CSCC[C@@H](C=O)NC(=O)[C@H](CC(C)C)NC(=O)OCc1ccccc1 (Cbz-Leu-Met-aldehyde) ?
Result: 7.48

Request: What measured pIC50 goes with CC(=O)N[C@@H](CC(C)C)C(=O)N[C@@H](CC(C)C)C(=O)N[C@H](C=O)Cc1ccccc1 (Ac-Leu-Leu-Phe-aldehyde) ?
Result: 7.49

---

Biological target: Calpain-1 catalytic subunit (Homo sapiens, UniProt P07384)
Assay: Inhibitory activity evaluated against recombinant human calpain 1
Residues, ends and D or L forms follow the SMILES beside them. *: point of attachment. Cbz = O=C(OCc1ccccc1)*
quantity: IC50

Request: What measured IC50 goes with CC(C)C[C@@H](C=O)NC(=O)[C@H](CCCCN)NC(=O)[C@H](CC(C)C)NC(=O)OCc1ccccc1 (Cbz-Leu-Lys-Leu-aldehyde) ?
Result: ~10 µM

Request: What measured IC50 goes with CC(=O)N[C@@H](CC(C)C)C(=O)N[C@@H](CC(C)C)C(=O)NCC=O (Ac-Leu-Leu-Gly-aldehyde) ?
Result: ~1 µM

Request: What measured IC50 goes with `CC(C)C[C@H](NC(=O)OCc1ccccc1)C(=O)N[C@H](CC=O)Cc1ccccc1` ?
Result: > 1 µM

Request: What measured IC50 goes with CC(C)C[C@@H](C=O)NC(=O)CNC(=O)[C@H](CC(C)C)NC(=O)OCc1ccccc1 (Cbz-Leu-Gly-Leu-aldehyde) ?
Result: ~10 µM
